I'd be grateful if you could share measured TGI for these entries.
- Tested on: SF-539 CNS
- test_name: NCI tumour cell line growth inhibition, 48 h

Solved entries:
{"molecule": "COc1ccc(C(=O)N2CCc3c([nH]c4ccccc34)C2C(=O)O)o1 (stereo unspecified)", "TGI": "> 10 µM"}
{"molecule": "Cn1c(=O)[nH]c2[nH]c3ccccc3c2c1=O", "TGI": "> 100 µM"}
{"molecule": "COc1cccc2c(NNc3ccccc3)c3ccc([N+](=O)[O-])cc3nc12", "TGI": "> 100 µM"}

# return TGI for each item in the list
1. CCOC(=O)C(NC(=O)c1ccccc1)(Nc1ccc(S(=O)(=O)Nc2nc(C)cc(C)n2)cc1)C(F)(F)F (stereo unspecified)
2. C=C(C)CC1=C(OCC)C(OC)(OCC)C1=O (stereo unspecified)
3. C[C@]12CCC(=O)C=C1CC[C@@H]1[C@@H]2[C@@H](O)C[C@@]2(C)[C@H]1CC[C@]2(O)C(=O)CO
4. Nc1ccccc1N/C(=C\C(=O)C(Cl)(Cl)Cl)c1ccccc1
5. CN=C1Nc2ccc(Cl)cc2C(c2ccccc2)=NN1C
6. CCCN1CN(C(C(=O)N[C@@H]2C(=O)N3C2SC(C)(C)C3C(=O)O)c2ccccc2)CSC1=S (stereo partly specified)

Result:
> 100 µM
> 100 µM
> 100 µM
36.1 µM
> 100 µM
> 100 µM

# return TGI for each item in the list
1. OCCOCn1cc(Cn2ncc3c(SCc4ccccc4)ncnc32)nn1
2. CS(=O)(=O)c1nc(-c2cc3c(c(S(C)(=O)=O)n2)CCCC3)cc2c1CCCC2

Result:
["> 100 µM", "> 100 µM"]

----------
I'd be grateful if you could share measured TGI for these entries.
- Test system: HT29 colon
- test_name: NCI tumour cell line growth inhibition, 48 h

# return TGI for each item in the list
1. COc1cc(-c2cc(=O)c3ccccc3o2)ccc1N
2. C=CC1ON(C)CCc2cc(OC)c(OC)cc21 (stereo unspecified)
3. Cc1cc(C)c(O)c(Cc2cccc(Cc3cc(C)cc(C)c3O)c2O)c1
4. COc1c2c(cc3c1C(O)N1CC[C@]34[C@H]3O[C@H]3[C@H](OC)C[C@@H]14)OCO2 (stereo partly specified)
5. CC1(C)C=C(/C=N/Nc2ccc([N+](=O)[O-])cc2)C(C#N)=C(O)C1(C#N)C#N
6. N#CC(=S)Nc1ccc(Cl)c(Cl)c1
7. Oc1c2cc(Br)cc1CCc1cc(Br)cc(c1O)CC2
8. O=CN1CCN(C(=O)c2cc(Cl)cc(Cl)c2)C1=S

Result:
["> 100 µM", "> 100 µM", "> 100 µM", "> 100 µM", "> 100 µM", "55.4 µM", "35.9 µM", "54.5 µM"]

----------
I'd be grateful if you could share measured TGI for these entries.
- System: NCI-H226 lung
- test_name: NCI tumour cell line growth inhibition, 48 h

Solved entries:
{"compound": "NNC(=O)c1ccccc1Nc1ccccc1C(=O)NN", "TGI": "> 100 µM"}
{"compound": "COC(=O)C[C@@H]1C(C)(C)[C@@H]2O[C@@]34C[C@@H]2C(=O)[C@]1(C)[C@H]3CC[C@@]1(C)[C@H](c2ccoc2)OC(=O)C[C@]14O", "TGI": "> 100 µM"}
{"compound": "C=C1C[C@@H](O)[C@@H](Br)C(C)(C)[C@]12CCC(C)(Cl)C(Br)C2 (stereo not given in full)", "TGI": "> 84.8 µM"}

# return TGI for each item in the list
1. CCC(C)C1NC(=O)C2CCCN2C(=O)C(CC2CO2)OC(=O)CCNC(=O)C(C)N(C)C(=O)C(C(C)C)N(C)C1=O (stereo not given)
2. Clc1cc(Cl)c(Cl)c(-c2nc(-c3cccnc3)cs2)c1
3. NC(CNO)C(=O)O (stereo not given)
4. CC#CS(=O)(=O)c1ccccc1
5. Cn1c(=O)[nH]c2[nH]c3ccccc3c2c1=O

Result:
["> 17.1 µM", "85.8 µM", "> 100 µM", "24.1 µM", "> 100 µM"]

# return TGI for each item in the list
1. O=C(O)c1ccc(O)c(N=Nc2cc(S(=O)(=O)O)c3ccccc3c2O)c1
2. O=C1C(=O)N(C(=O)c2ccc(Cl)c(Cl)c2)c2ccc(Cl)cc21

Result:
> 100 µM
> 100 µM
